- Run Description: Animal toxicity bioassay: acute toxicity, intraperitoneal injection, LD50 by Litchfield and Wilkinson
- Assay type: in vivo
- Assay Conditions: both sexes, mouse, in vivo, ip, white mice, observed 14 days
Endpoint Name: LD50 at 14 days

# Compound, Data Value
measured = [
    ("COC(=O)C(=CC(=O)C(C)(C)C)NN=C1c2ccccc2-c2ccccc21", "> 3000 mg/kg"),
    ("COC(=O)/C(=C/C(=O)c1ccccc1)NN=C1c2ccccc2-c2ccccc21", "> 1000 mg/kg"),
]

Query block: Fill in: LD50 at 14 days of COC(=O)/C(=C/C(=O)c1ccccc1)N/N=C(\c1ccccc1)c1ccc(N(C)C)cc1 is ___
Result block: > 1500 mg/kg

Query block: Fill in: LD50 at 14 days of COC(=O)/C(=C/C(=O)c1ccccc1)N/N=C(\C)c1ccc(Cl)cc1 is ___
Result block: > 250 mg/kg

Query block: Fill in: LD50 at 14 days of COC(=O)/C(=C/C(=O)c1ccccc1)N/N=C(\c1ccccc1)c1ccccc1Br is ___
Result block: > 5000 mg/kg

Query block: Fill in: LD50 at 14 days of CCOc1ccc(C(=O)CC(O)(NN=C2c3ccccc3-c3ccccc32)C(=O)OC)cc1 (stereo not shown) is ___
Result block: > 1500 mg/kg

Query block: Fill in: LD50 at 14 days of COC(=O)C(=CC(=O)c1ccc(Cl)cc1)NN=C1c2ccccc2-c2ccccc21 is ___
Result block: > 750 mg/kg
